Target: human Sigma-1 receptor (S1R) (Homo sapiens, UniProt Q99720)
Construct: expressed in transfected cells
Sequence (Q99720 whole entry): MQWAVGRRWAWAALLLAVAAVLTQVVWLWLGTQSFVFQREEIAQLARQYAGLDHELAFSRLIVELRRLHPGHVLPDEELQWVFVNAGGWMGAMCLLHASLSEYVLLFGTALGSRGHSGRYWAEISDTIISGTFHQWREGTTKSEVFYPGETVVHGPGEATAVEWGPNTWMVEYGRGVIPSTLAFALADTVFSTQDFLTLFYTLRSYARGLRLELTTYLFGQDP
Experiment: Radioligand competition binding at Sigma-1 receptor ([3H]-(+)-pentazocine, MCF-7-hS1R)
Conditions: displacement of 0.5 nM [3H]-(+)-pentazocine, MCF-7 cells expressing human S1R; average of 2-3 experiments ± SEM; read-out: S1R affinity (Ki)
endpoint.name: Ki (nM)
Numeric answer only, unit nM assumed.

input: # lookup: Ki of CCN(CC)CCOCCOC(=O)C(CC)(CC)c1ccccc1 [Oxeladin]
output: 25

input: Data request, read-out Ki, for CCC(C(=O)OCCOCCN(CC)CC)c1ccccc1 (stereo not drawn) [Butamirate]
output: 17.2

input: Return reported Ki; argument: CCN(CC)CCOCCOC(=O)C1(c2ccccc2)CCCC1 [Carbetapentane]
output: 19.8

* * *

Tested on: rat blood
Experiment: Clotting (streak) assay of thrombotic potential
Conditions: rat
endpoint.name: Coagulation Half-Life (λ1/2 ± SD) (min)
The figure you give is taken to be in min; do not add the unit.

input: Coagulation Half-Life (λ1/2 ± SD) for COc1ccc(CCN2CCN(CCCc3ccccc3)CC2)cc1OC ?
output: 11

input: I'd like to know its Coagulation Half-Life (λ1/2 ± SD). The compound in question is CCC(C/C=C/c1ccccc1)(c1ccccc1)N(C)CC1CC1 (single isomer, unassigned; (+)) [(+)-igmesine]
output: 19

input: Entry Cc1c(C2CCN(CCc3ccccc3)CC2)noc1-c1ccc(Cl)cc1 has what Coagulation Half-Life (λ1/2 ± SD)?
output: 11

input: Entry Clc1ccc(N2CCN(Cc3c[nH]c4ncccc34)CC2)cc1 : reported Coagulation Half-Life (λ1/2 ± SD) = ?
output: 11

input: Fill in: Coagulation Half-Life (λ1/2 ± SD) of CCN(CC)CCOCCOC(=O)C1(c2ccccc2)CCCC1 is ___
output: 23

* * *

Target: human Sigma-1 receptor (S1R) (Homo sapiens, UniProt Q99720)
Construct: expressed in transfected cells
Test: Radioligand competition binding at Sigma-1 receptor ([3H]-(+)-pentazocine, MCF-7-hS1R)
Conditions: receptor not given, S1R implied; read-out: affinity
endpoint.name: Ki
Your answer should be a number followed by the unit of measure.

input: Notebook: pull reported Ki for human Sigma-1 receptor (S1R) (Homo sapiens, UniProt Q99720), entry CC(CN1c2ccccc2Sc2ccccc21)N(C)C (stereo not shown) [Promethazine]
output: 0.157 µM

* * *

Tested on: neuronal MN9D cell line
Assay: BDNF secretion via in situ ELISA
Type: cell-based
Details: 10 μM, 24 hrs, MN9D cells; normalized to maximal response of 10 μM 4-PPBP; mean ± SEM; asterisk = significantly different from 4-PPBP
Response field label: string, one of true (1) (Efficacy of BDNF secretion strictly below 1) or false (0).

input: Answer whether the compound CC(CN1c2ccccc2Sc2ccccc21)N(C)C (centres unmarked) has Efficacy of BDNF secretion strictly less than 1
output: false (0)

input: Please let me know if CCN(CC)CCOCCOC(=O)C1(c2ccccc2)CCCC1 shows Efficacy of BDNF secretion below 1.
output: true (1)

input: Consider the compound CCC(C/C=C/c1ccccc1)(c1ccccc1)N(C)CC1CC1 (single isomer, unassigned; (+)) [(+)-igmesine] . Is its Efficacy of BDNF secretion strictly less than 1?
output: true (1)

input: Is Efficacy of BDNF secretion strictly under 1 for the entry CCN(CC)CCOCCOC(=O)C(CC)(CC)c1ccccc1 ?
output: true (1)

* * *

Molecular target: human Sigma-2 receptor (S2R) (Homo sapiens)
Construct: these cells express the endogenous S2R; endogenous in cells
Sequence (Q5BJF2 whole entry): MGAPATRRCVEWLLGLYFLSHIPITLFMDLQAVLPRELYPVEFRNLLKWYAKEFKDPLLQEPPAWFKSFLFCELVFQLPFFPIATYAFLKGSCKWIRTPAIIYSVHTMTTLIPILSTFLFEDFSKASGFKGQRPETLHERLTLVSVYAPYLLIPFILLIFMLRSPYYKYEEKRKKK
Assay: Radioligand competition binding at Sigma-2 receptor ([3H]-DTG, untransfected MCF-7)
Settings: displacement of 2.5 nM [3H]DTG, untransfected MCF-7 cells; average of 2-3 experiments ± SEM; read-out: S2R affinity (Ki)
endpoint.name: Ki (nM)
Give just the numeric value; nM need not be written.

input: May I ask what Ki has been recorded for CCN(CC)CCOCCOC(=O)C(CC)(CC)c1ccccc1 [Oxeladin] ?
output: 148
